The values you see were collected from the nanobody polyreactivity screen of Harvey et al. (2022).

test-method-notes: yeast display, Sf9 membrane polyspecificity reagent, FACS + sequencing; frameworks hold sequencing errors
metric: polyreactivity (PSR sort gate)

Field: example entries. Status: answers known.
QVQLVESGGGLVQAGGSLRLSCAASGRTFKNYAMGWYRQAPGKERELVAAISRRGSSTYYADSVKGRFTISRDNAKNTVYLQMNSLKPEDTAVYYCNAVKFTYGWLGYWGQGTQVTVSS: high polyreactivity
QVQLVESGGGLVQAGGSLRLSCAASGRTSYVYAMGWYRQAPGKERELVAAITSSGGSTYYADSVKGRFTISRDNAKNTVYLQMNSLKPEDTAVYYCAASRVRYSYGYPYYYWGQGTQVTVSS: high polyreactivity
QVQLLESGGGLVQAGGRHRLSCAASGRTFPGNAMGWYRKAPGKERELVAAISWSVDRTYYADSVKGRFTISRDNAKNTVYLQMNSLKPEDTSVYYCAAVEWWSSSLRMYYWGQGTQETVSS: low polyreactivity
QVKLVDSGGGLVQAGGSLRISCGASGRTFYGYDMGWYRQAPGKERELVAAINWRGVRTYYADSVKGRFTISRDNAKNTDYLEMNCLKPEDTAVYYCGVYNHWVYGNDYWGQGTQVTVSS: high polyreactivity

# input for lookup
Problem: What value of measured polyreactivity (PSR sort gate) is listed for QVQLVESGGGLVQAGGSLRLSCAASGRTFGSYVMVWYRQAPGKEREFVAVISGSVGSTYYADSVKGRFTISRDNAKNTVYLQMNSLKPEDTAVYYCARRGIRTSETKQYHQYNYWGQGTQVTVSS ?
Result: low polyreactivity

====

test-method-notes: yeast display, Sf9 membrane polyspecificity reagent, FACS + sequencing; frameworks hold sequencing errors
metric: polyreactivity (PSR sort gate)

QVQLVESGGGLVQAGGSLRLSCAASGSTFDDYVMGWYRQAPGKERELVAGINSRGTSTDYADSVKGRFTISRDNAKNTVYLQMNSLIPEDTAVYYCAADDSHGYDYWGQGTQVTVSS: low polyreactivity
QVQLVESGGGLVQAGGSLRLSSAASGSIFRWNAMGWYRQAPGKERELVAVITWRGGRTYYADSVKGRFTISRDNAKNTVYLQMNSLKPEDTAVYYCGKGRLVTTLFGHYATFEYDSWGQGTQVTVSS: high polyreactivity
QVQLVESGGGLVQAGGSLPLSCAASGRIYDSYAKGWYIQAPGKERELVAAISFGGDTYYADSVKGRFTISRDNAKNTVYLQMNSLKPEDTAVYYCAKDNPAALFDSWGQGTQVTVSS: low polyreactivity
QVQLVESGGGLVQAGGSLRLSCAASGLIFYLYAMGWYRQAPGKERELVAAFTYSGGSTRYADSVKGRFTISRDNAKNTVYLQMNSLKPEDTAVYYCNADGTAPTEMDYWGQGTQVTVSS: low polyreactivity

Problem: What value of measured polyreactivity (PSR sort gate) is listed for QVQLVESGGGLVKAGGSLRLSCAASGRTFYVNAMGWYRQAPGKEREFVAAISRRGGSTYYADSVKGRFTISRDNAKNTVYFQLNSLKPEDTAVYYCATGYHRWSSWALDYWGQGTQVTVSS ?
Result: high polyreactivity

====

test-method-notes: yeast display, Sf9 membrane polyspecificity reagent, FACS + sequencing; frameworks hold sequencing errors
metric: polyreactivity (PSR sort gate)

Field: example entries. Status: answers known.
QVQLVESGGGLVQAGGSLRLSCAASGSIFAHYAMGWYRQAPGKERELVAAISKNAGSTYYADSVKGRFTISRDNAKNTVYLQMNSLKPEDTAVYYCATGYQKPYSSDYWGQGTQVTVSS: high polyreactivity
QVQLVESGGGLVQAGGSLRLSCAASGRTFPSYAMGWYRQAPGKERELVAAITRGGSTNYADSVKGRFTISRDNAKNTVYLQMNSLKPEDTAVYYWAAARWRWQLARDDYWGQGTQVTVSS: high polyreactivity
QVQLVESGGGLVQAGGSLRLSCAASGRILSSYAMGWYRQAPGKERELVARISYSGGRTYYADSVKGRFTISRDNAKNTVYLQMNSLKPEDTAVYYCAAVSRVHFSYIYDYWGQGTQVTVSS: high polyreactivity
QVQLVESGGGLVQAGGSLRLSCAASGRTFWVYAMGWYRQAPGKERELVAAIRRGGITNYADSVKGRFTISRDNAKNTVYLQMNSLKPEDTAVYYCAALGLWFLQFDYWGQGTQVTVSS: low polyreactivity
QVQLVESGGGLVQAGGSLRLSCAASGSTFYPYAMGWYRQAPGKERELVASISSRGGTTYYADSVKGRFTISRDNAKNTVYLQMNSLKPEDTAVYYCAARLTYAERKWPTKYYWGQGTQVTVSS: high polyreactivity

Problem: What value of measured polyreactivity (PSR sort gate) is listed for QVQLVESGGGLVQAGGSLRLSCAASGFIFSWYDMGWYRQAPGKERELVAAISYSGSNTYYADSVKGRFTISRDNAKNTVYLQMNSLKPEDTAVYYCAATLGSRWAIYDYWGQGTQVTVSS ?
Result: high polyreactivity

Problem: Also need QVQLVESGGGLVQAGGSLRLSRAASGRSYVYAMGWYRQAPGTETEVVAAISTISSSTYYADSVKGRFTISRDNAKNTVYLQMNSLKPEDTAVYYCAADYSQYYYYGWIDSDYWGQGTQVTVSS , thanks.
Result: high polyreactivity

Problem: Also need QVQLVESGGGLVQAGGSLRLSCAASGRIVSGYVMGWYRQAPGKERELVAVISRSGGSTYYADSVKGRFTISRDNAKNTVYLQMNSLKPEDTAVYYCDAKHIDGSRGYDYWGQGTQVTVSS , thanks.
Result: low polyreactivity

Problem: Also need QVQLVESGGGLVQAGGSLRLSCAASGSIFGYYSMGWYRQAPGKERELVAAISRSGTRTYYADSVKGRFTISRDNAKNTVYVQMNSLKPEDTAVYYCNAVQQYYGTWGYGYWGQGTQVSVSS , thanks.
Result: high polyreactivity

Problem: Also need QVQLVESGGGLVQAGGSLRLSCAASGRIFPGYAMGWYRQAPGKERELVAAISKGGGSKYYADSVKGRFTISRDNAKNTVYLQMNSLKTEDTAVYYCAAQSYPRSYGLDYWGQGTQVTVSS , thanks.
Result: high polyreactivity

Problem: Also need QVQLVESGGGLVQAGGSLRLSCAASGYTFTSNAMGWYRQAPGKERELVADISTGVDSTYYADSVKGRFTISRDNAKNTVYLQMNSLKPEDTAVYYCNADILVAWYDEPFDYWGQGTQVTVSS , thanks.
Result: low polyreactivity

====

test-method-notes: yeast display, Sf9 membrane polyspecificity reagent, FACS + sequencing; frameworks hold sequencing errors
metric: polyreactivity (PSR sort gate)

Field: example entries. Status: answers known.
QVQLVETGGGLVQAGGSLRLSCAASGFTYRRYAMGWYRQAPGKERELVAAINWNGDSTYYADSVKGRFTISRDNAKNTVYLQMNSLKPEDTAVYYCNAGWYGGRYSKFDYWGQGTQVTVSS: high polyreactivity
QVQLVESGGGLVQAGGSLRLSCAASGRIFLSYAIGWYRQAPGKERELVAAITSSGGSTYYADSVKGRFTISRDNAKNTVYFQMNSLKPEDTAVYYCAADYGDPRVNEYDYWGQGTQVTVSS: low polyreactivity
QVQLVESGGGLVQAGGSLRLSCAASGSIFLRNAMGWYRQAPGKERELVAAITKRGGSTYYADSVKGRFTISRDNAKNTVYLQMNSLKPEDTAVYYCNVDTYANTAFVRKPMYYWGQGTQVTVSS: low polyreactivity
QVQLVESGGGLVQAGGSLRLSCAASGRTFINYAMGWYRQAPGKERELVAAITTGGRTNYADSVKGRFTISRDNAKHTVYLQMNSLKPEDTAVYYCAADRYYWGRYTLNYWGQGTQVTVSS: low polyreactivity

# input for lookup
Problem: What value of measured polyreactivity (PSR sort gate) is listed for QVQLVESGGGLVQAGGSLRLSCAASGFIFGWNAMGWYRQAPGKERELVAGISRGGRTYYADSVKGRFTISRDNAKNTVYLQMNSLKPEDTAVYYCNKRLYSSSAVDAYGYWGQGTQVTVSS ?
Result: high polyreactivity

====

test-method-notes: yeast display, Sf9 membrane polyspecificity reagent, FACS + sequencing; frameworks hold sequencing errors
metric: polyreactivity (PSR sort gate)

Field: example entries. Status: answers known.
QVQLVESGGGLVQAGGSLRLSCAASGFTFGPNTMGWYRQAAGKERELVATITWRGDGSTYYADSVKGRFTISRDNAKNTVYLQMNSLKPEDTAVYYCAAVIRPFSRRDMYYWGQGTQVTVSS: low polyreactivity
QVQHVESGGGLVQAGGSLRLSCAASGFIFRWYAMGWYRQAPGKERELVAAITTSGGITYYADSVKGRFTISRDNAKNTVYLQMNSLKPEDTAVYYCNRSPWYGPWHPNSFGSGDYWGQGTQVTVSS: low polyreactivity
QVQLVESGGGLVQAGGSLRLSCAASGRTFPYYAMGWYRQAPGKEREFVAGISRTGGSTYYADSVKGRFTISRDNAKNTVYLQMNSLKPEDTAVYYCNAPYIMTQQGGRRYDYWGQGTQVTVSS: high polyreactivity
QVQLVESGGGLVQAGGSLRLSCAASGITILWNVMGWYRQAPGKERELVATITSIGGITNYADSVKGRFTISRDNAKNTVYLQMNSLKPEDTAVYYCARDDRDIRGVSGREGFLYDYWGQGTQVTVSS: low polyreactivity
QVQLVESGGGLVQAGGSLRLSCAASGRTFAYYAMGWYRQAPGTERELVAGITYSGGRTYYADSVKGRFTISRDNAKNTVYLQMNSLKPEDTAVYYCATRWPSKPTSRAMYYWGQGTQVTVSS: high polyreactivity

Problem: What value of measured polyreactivity (PSR sort gate) is listed for QVQLVESGGGLVQAGGSLRLRCAASGRTFYSHTMGWYRQAPGKERELVAAIDWSGGRTYYADSVKGRFTISRDNAKNTVYLQMNSLKPEDTAVDYCNTVGYTRRLRSGGYWGQGTQVTVSS ?
Result: high polyreactivity

Problem: Also need QVQLVESGGCLVQAGGSLRLSCAASGITFKYYVMGWYRQAPGKEREFVAAISWGGGSPYYADSVKGRCTISRDNAKNTVYVQMNSLKPEDTAVYYCAATSAYGRYRYYYWGQGTQVTVSS , thanks.
Result: high polyreactivity

Problem: Also need QVQLVESGGGLVQAVGSIRLSCAASGSIFRKYSIRWNRQAPGKDRELVAAISWSGGGTYYADSVKGRFTISRDNAKNTVYLQMNSLKPEDTAVYYCAADPYWDSKGVYWGQGTQVTVSS , thanks.
Result: low polyreactivity
